Target: Leukotriene, Cysteinyl CysLT1 (Cavia porcellus, UniProt Q2NNR5)
Construct: from tissue; host or cells: guinea pig lung membrane
Sequence (Q2NNR5 whole entry): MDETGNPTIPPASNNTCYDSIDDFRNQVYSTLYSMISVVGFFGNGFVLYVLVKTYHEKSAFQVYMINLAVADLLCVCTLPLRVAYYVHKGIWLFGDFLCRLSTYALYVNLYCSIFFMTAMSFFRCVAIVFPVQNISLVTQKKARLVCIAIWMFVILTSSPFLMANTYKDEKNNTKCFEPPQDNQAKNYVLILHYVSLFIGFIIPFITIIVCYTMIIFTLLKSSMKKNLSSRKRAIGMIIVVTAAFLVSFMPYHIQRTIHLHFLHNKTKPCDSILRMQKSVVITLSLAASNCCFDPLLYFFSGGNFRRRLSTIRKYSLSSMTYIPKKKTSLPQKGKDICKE
Assay: receptor radio-ligand-binding assay (Tritiated LTD4 as the ligand), Guinea pig lung membrane
Details: 0.5 h; 10 nM test compound; 0.2 nM 3H LTD4, Guinea pig lung membrane; read-out: % Inhbition (in nM) 10
# cutoff 70% applies to inhibition at 0.01 µM; >= gives YES, < gives NO

[
  {
    "Compound": "COc1cc(C(=O)O)c(CCC2(c3cccc(/C=C/c4ccc5ccc(Cl)cc5n4)c3)OCCCO2)cc1[N+](=O)[O-]",
    "Cat": "YES"
  },
  {
    "Compound": "CCOC(COc1ccc(OC)cc1C(=O)O)c1cccc(C#Cc2ccc3ccc(Cl)cc3n2)c1 (stereo not drawn)",
    "Cat": "YES"
  },
  {
    "Compound": "O=C(O)c1ccccc1CCC1(c2cccc(/C=C/c3ccc4ccc(Cl)cc4n3)c2)OCCO1",
    "Cat": "NO"
  }
]

Now turn to the next compound.
input: Confirm if inhibition at 0.01 µM reported for the compound CCOC(COc1ccc(OC)cc1C(=O)O)c1cccc(/C=C/c2nc3ccccc3s2)c1 (stereo not drawn) is 70% or above.
output: YES

---

Molecular target: Leukotriene, Cysteinyl CysLT1 (Cavia porcellus)
Construct: from tissue; host or cells: guinea pig lung membrane
Test: receptor radio-ligand-binding assay (Tritiated LTD4 as the ligand), Guinea pig lung membrane
Settings: 0.5 h; 1 nM test compound; 0.2 nM 3H LTD4, Guinea pig lung membrane; read-out: % Inhbition (in nM) 1
# cutoff 30% applies to inhibition at 0.001 µM; >= gives YES, < gives NO

Some solved cases for reference:
[
  {
    "Molecule": "O=C(O)c1ccccc1OCC(OCCc1cccs1)c1cccc(/C=C/c2ccc3ccc(Cl)cc3n2)c1 (stereo not drawn)",
    "Cat": "YES"
  },
  {
    "Molecule": "C#CCOc1ccc(CCC2(c3cccc(/C=C/c4ccc5ccc(Cl)cc5n4)c3)OCCO2)c(C(=O)O)c1",
    "Cat": "NO"
  }
]

input: Confirm if inhibition at 0.001 µM reported for the molecule `O=C(N[C@@H](CCc1ccccc1C(=O)O)c1cccc(/C=C/c2ccc3ccc(Cl)cc3n2)c1)c1cccs1` is 30% or above.
output: YES

input: Confirm if inhibition at 0.001 µM reported for the molecule `CC1(C)COC(CCc2ccccc2C(=O)O)(c2cccc(/C=C/c3ccc4ccc(Cl)cc4n3)c2)OC1` is 30% or above.
output: YES

input: Confirm if inhibition at 0.001 µM reported for the molecule `O=C(N[C@H](CCc1ccccc1C(=O)O)c1cccc(/C=C/c2ccc3ccc(Cl)cc3n2)c1)c1ccco1` is 30% or above.
output: YES

input: Confirm if inhibition at 0.001 µM reported for the molecule CN(C(=O)c1ccco1)C(CCc1ccccc1C(=O)O)c1cccc(/C=C/c2ccc3ccc(Cl)cc3n2)c1 (stereo not drawn) is 30% or above.
output: YES
